biological target: NHE1 (Homo sapiens); construct: endogenous in cells; host or cells: MDA-MB-231; assay: Plate-based NHE1 inhibition assay (BCECF pHi recovery, 96-well plate reader); assay type: cell-based; settings: 10 μM, MDA-MB-231 cells, plate reader
I'd appreciate it if you could supply inhibition at 10 µM values for the items below.

Would you please look over these solved cases?
INSERT INTO results (molecule, endpoint_result) VALUES
  ('N=C(N)NC(=O)c1nc(-c2cnc(N)nc2)c(N2CCCCCC2)nc1N [compound 27]', '11%'),
  ('N=C(N)NC(=O)c1nc(-c2ccc(C(F)(F)F)cc2)c(N2CCCCCC2)nc1N [compound 23]', '100%'),
  ('N=C(N)NC(=O)c1nc(Cl)c(N2CCOCC2)nc1N [compound 29]', '100%'),
  ('Cc1ccc2oc(-c3nc(C(=O)NC(=N)N)c(N)nc3N)cc2c1 [compound 6]', '71%'),
  ('N=C(N)NC(=O)c1nc(-c2ccc(C(F)(F)F)cc2)c(C2CC2)nc1N [compound 40]', '80%'),
  ('N=C(N)NC(=O)c1nc(Cl)c(N2CCCOCC2)nc1N [compound 30]', '100%'),
  ('N=C(N)NC(=O)c1nc(-c2ccc(C(F)(F)F)cc2)c(N2CCCC2)nc1N [compound 39]', '100%'),
  ('N=C(N)NC(=O)c1nc(-c2cc3cc(Cl)ccc3o2)c(N)nc1N [compound 10]', '62%');

For every record below, what is its inhibition at 10 µM?
1. N=C(N)NC(=O)c1nc(-c2cc3ccccc3o2)c(N2CCCCCC2)nc1N [compound 5]
2. N=C(N)NC(=O)c1nc(-c2cc3ccccc3o2)c(N2CCOCC2)nc1N [compound 36]
3. N=C(N)NC(=O)c1nc(-c2cc3cc(F)cc(F)c3o2)c(N2CCCCCC2)nc1N [compound 17]
4. N=C(N)NC(=O)c1nc(-c2cc3ccccc3o2)c(N2CCCCC2)nc1N [compound 32]
5. N=C(N)NC(=O)c1nc(-c2cc3ncccc3o2)c(N2CCCC2)nc1N [compound 38]

1. 72%
2. 81%
3. 90%
4. 100%
5. 81%

====

Biological target: NHE1 (Homo sapiens)
Construct: endogenous in cells; host or cells: MDA-MB-231
Assay: Plate-based NHE1 inhibition assay (BCECF pHi recovery, 96-well plate reader)
Format: cell-based
Settings: Figure S1 representative curve, n = 3 technical replicates; read-out: NHE1 IC50 of curve shown, plate reader assay
From the text: To perform NHE1 screening with increased throughput, we adapted the conventional cuvette-based NHE1 activity assay to a simple new 96-well plate format using MDA-MB-231 cells that were compatible with common laboratory fluorescence plate readers (see Section 4 for details). […]
MEASURED PROPERTY: IC50 (nM)
Answers are plain numbers, in nM.

Which IC50 is reported for this molecule? CC(=O)N1CCC(c2ccc(C(=O)NC(=N)N)cc2C(F)(F)F)CC1 [BI-9627, reference compound]
1.4

====

I'd appreciate it if you could supply inhibition at 10 µM values for the items below.
biological target: NHE1 (Homo sapiens, UniProt P19634); construct: endogenous in cells; host or cells: MDA-MB-231; assay: Plate-based NHE1 inhibition assay (BCECF pHi recovery, 96-well plate reader); assay type: cell-based; conditions: 10 μM, MDA-MB-231 cells, plate reader
Sequence (P19634 whole entry): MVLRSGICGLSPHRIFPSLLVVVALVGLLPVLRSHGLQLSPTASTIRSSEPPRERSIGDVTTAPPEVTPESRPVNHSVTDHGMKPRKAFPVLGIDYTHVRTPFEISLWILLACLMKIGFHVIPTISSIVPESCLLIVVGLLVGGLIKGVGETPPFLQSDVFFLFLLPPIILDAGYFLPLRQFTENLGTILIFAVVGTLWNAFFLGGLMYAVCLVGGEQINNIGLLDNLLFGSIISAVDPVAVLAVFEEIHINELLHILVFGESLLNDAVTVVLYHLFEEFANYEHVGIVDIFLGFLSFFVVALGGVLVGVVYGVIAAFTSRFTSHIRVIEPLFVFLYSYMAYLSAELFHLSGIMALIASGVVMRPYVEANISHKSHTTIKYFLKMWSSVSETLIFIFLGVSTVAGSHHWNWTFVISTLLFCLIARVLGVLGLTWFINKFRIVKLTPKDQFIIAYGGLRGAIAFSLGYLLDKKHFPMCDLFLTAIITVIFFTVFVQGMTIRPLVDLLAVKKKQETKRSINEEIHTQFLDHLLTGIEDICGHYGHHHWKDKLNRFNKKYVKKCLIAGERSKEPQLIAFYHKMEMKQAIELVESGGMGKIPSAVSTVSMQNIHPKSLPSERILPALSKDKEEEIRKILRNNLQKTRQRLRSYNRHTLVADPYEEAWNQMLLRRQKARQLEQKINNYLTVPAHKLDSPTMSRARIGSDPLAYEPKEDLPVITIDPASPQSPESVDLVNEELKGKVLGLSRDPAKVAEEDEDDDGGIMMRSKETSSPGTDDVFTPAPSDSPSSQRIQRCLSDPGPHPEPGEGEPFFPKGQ
Numbers only, in %.

For every record below, what is its inhibition at 10 µM?
1. COc1ncc(-c2nc(C(=O)NC(=N)N)c(N)nc2N2CCCCCC2)cn1 [compound 26]
2. N=C(N)NC(=O)c1nc(-c2cc3cc(F)cc(F)c3o2)c(N)nc1N [compound 16]
3. N=C(N)NC(=O)c1nc(Cl)c(N)nc1N [AML, Amiloride, reference compound]
4. N=C(N)NC(=O)c1nc(-c2cc3cc(F)ccc3o2)c(N2CCCCCC2)nc1N [compound 9]

72
52
64
100

Attribution: paper PMC8000185
